Test System: human GLP-1 receptor (human, UniProt P43220 24-463)
Experimental Details: cell-based or functional assay
Where no end group is shown, it is not given here. [ ]: non-standard residue; d: D form. (mPEG)2 40 kDa = C3 = Cys(mPEG)240kDa, branched (mPEG)2, 40 kDa; Aib = CC(C)(N)C(=O)O
In this section we review reported GLP-1R EC50 values for a set of binders.
Answer with a number only, understood to be in nM.

Consider the worked cases shown below.
1. HXQGTFTSDYSKYLDSRRAQDFVQWLMNTKRNRNNIAC (α-aminoisobutyric acid (Aib) at position 2; C1 = Cys(mPEG)5kDa at position 38; C-terminal amide) [OXM67]	5.8
2. HSQGTFTSDYSKYLDSRRAQDFVQWLMNTKRNRNNIAC (D-Ser at position 2; C3 = Cys(mPEG)240kDa (branched (mPEG)2, 40 kDa) at position 38; C-terminal amide) [OXM35]	716
3. HXQGTFTSDYSKYLDSRRAQDFVCWLMNTKRNRNNIA (Aib at position 2; C3 = Cys(mPEG)240kDa (40 kDa) at position 24; methionine sulfoxide at position 27; C-terminal amide) [OXM107]	29.7
4. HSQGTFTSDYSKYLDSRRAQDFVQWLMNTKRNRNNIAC (D-Ser at position 2; C1 = Cys(mPEG)5kDa at position 38; C-terminal amide) [OXM33]	115
5. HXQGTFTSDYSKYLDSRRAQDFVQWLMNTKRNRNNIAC (not fully specified; Aib at position 2; methionine sulfoxide at position 27; C3 = Cys(mPEG)240kDa (40 kDa) at position 38; C-terminal amide) [OXM99]	7.4
6. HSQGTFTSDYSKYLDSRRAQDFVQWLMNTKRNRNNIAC (D-Ser at position 2; C2 = Cys(mPEG)20kDa at position 38; C-terminal amide) [OXM34]	195

Could you now consider this next binder?
Exam item: // GLP-1R EC50 lookup, key: H[Aib]QGTFTSDYSKYLDSRRAQC((mPEG)2 40 kDa)FVQWLMNTKRNRNNIA-NH2 [OXM105]
Marked response: 28.5
